system: SK-OV-3 ovarian; assay: NCI tumour cell line growth inhibition, 48 h
attribute-measured: TGI

Please review the following examples before continuing.
INSERT INTO measurements (compound, attribute_measured, assay_result) VALUES
  ('CCCCN=C(NC#N)N(Cc1ccccc1)Cc1ccccc1', 'TGI', '87.6 µM'),
  ('Cc1cc(C)c2c(=N)c3ccccc3n(CCCCCCn3c4ccccc4c(=N)c4c(C)cc(C)nc43)c2n1', 'TGI', '2.98 µM'),
  ('COc1ccc(N2C(N)=C(C#N)C(C#N)(C#N)C2c2cccc([N+](=O)[O-])c2)cc1 (stereo not drawn)', 'TGI', '38.9 µM'),
  ('COc1ccc2nc(NCN3C(=O)c4ccccc4C3=O)sc2c1', 'TGI', '> 100 µM');

Look at each compound and report its TGI.
1. COc1cc(/C=C2\N=C(C)N(n3c(-c4ccccc4)nc4ccccc4c3=O)C2=O)cc(OC)c1OC
2. NC(CC(=O)Nc1ccc(Cl)cc1)=Nc1ccccc1
3. O=S(=O)(O)c1cc(Nc2ccnc3ccccc23)c2c(S(=O)(=O)O)cc(S(=O)(=O)O)cc2c1

// result
1. > 100 µM
2. > 100 µM
3. > 100 µM

Look at each compound and report its TGI.
1. CCC(=O)C(C)C(=O)C(=O)C(=O)OC (stereo not drawn)
2. O=C1C(Cl)=C(Nc2cccc(O)c2)C(=O)N1Cc1ccc(Cl)cc1
3. N/C(=N\N=C\c1cc2c(cc1Cl)OCO2)NO

// result
> 100 µM
19.9 µM
> 92.5 µM

Reference source: PubChem BioAssay (NCI)
